Biological target: T1, human DR3 (full length, on cells) (human, UniProt Q93038 25-417)
T1 sequence: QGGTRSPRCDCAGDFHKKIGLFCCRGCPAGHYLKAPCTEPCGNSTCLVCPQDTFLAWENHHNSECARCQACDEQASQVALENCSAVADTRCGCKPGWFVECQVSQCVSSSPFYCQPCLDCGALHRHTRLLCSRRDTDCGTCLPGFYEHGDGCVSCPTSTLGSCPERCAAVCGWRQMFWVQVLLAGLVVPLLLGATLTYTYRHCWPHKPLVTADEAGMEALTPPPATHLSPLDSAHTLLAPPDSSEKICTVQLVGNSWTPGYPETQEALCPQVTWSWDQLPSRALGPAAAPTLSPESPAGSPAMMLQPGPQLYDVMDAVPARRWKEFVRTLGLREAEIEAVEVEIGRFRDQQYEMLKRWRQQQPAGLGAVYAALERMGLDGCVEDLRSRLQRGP
Assay: cell-based or functional assay
quantity_kind: IC50 at 40 ng/ml TL1A, I5 reporter cells (pM)
Expressed in pM, but write only the number.

Study these solved cases before continuing.
• 0130 (recombinant murine Fab of 45F36) (Fab, V domains shown, murine Fab; also called 00130) VH: EVQLVESGGGLVKPGGSLKLSCAASGFTFSSYAMSWVRQSPDKRLEWVAEISSGDTYTYYPDTVTGRFTISRDNAKKTLYLEMSGLRSEDTAMYYCARDREAYYGQQYVMDYWGQGTSVTVSS VL: DIVLTQSPASLAVSLGLSVTISCRASESIEYSGTSFLQWYQQKPGQPPRLLIYGSSTVESGVPARFSGSGSGTDFSLNIHPVEEDDSAMYFCQQSRRLPWTFGGGTKLEIKR = 1400
• 0123 (chimeric Fab of 27F44, human IgG4 constant domain, hinge Cys->Ser) (Fab, V domains shown, murine variable domains, human IgG4 constant domain (IgG4-Ser)) VH: EVKLVESGGGLVKPGGSLKLSCSASGFAFSNYDMSWVRQTPEKRLEWVAAFSSDGYTFYPDSLKGRFTISRDNARNTLYLQMSSLGSEDTALYCCARHADYANYPVMDYWGQGTSVTVSS VL: DIVLAQSPASLLVSLGQRATISCRASKSVSTSGYSYMHWYQQKPGQPPKLLIYLASNLESGVPARFSGSGSGTDFTLNIHPVEEEDAATYYCQHSRELPLTFGAGTMLELKR = 188
• 0228 (humanized Fab of 27F44, IgG4, hz0072VH S49A / hz0072VL) (Fab, V domains shown, IgG4-Cys, hz (humanized IgG4 Fab with the hinge cysteine kept)) VH: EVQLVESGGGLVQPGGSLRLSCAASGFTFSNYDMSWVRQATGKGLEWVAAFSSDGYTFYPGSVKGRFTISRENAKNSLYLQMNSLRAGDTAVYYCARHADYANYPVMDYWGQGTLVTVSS VL: DIQMTQSPSSLSASVGDRVTITCRASKSVSTSGYSYMHWYQQKPGKAPKLLIYLASNLESGVPSRFSGSGSGTDFTLTISSLQPEDFATYYCQHSRELPLTFGGGTKVEIKR = 320

### Prompt Entry 0143 (chimeric Fab of 44F434, human IgG4 constant domain, hinge Cys->Ser) (Fab, V domains shown, IgG4-Ser, chimeric) VH: EVQLVESGGDLVMPGGSLKLSCAASGFIFSSYGLSWIRQTPDKRLEWVATISGGDSYTYYPDSVKGRFTISSDNAKNTLYLQMTSLKSEDTAMYYCATQREIYYGTYYALDHWGQGTSVTVSS VL: DIQMTQTTSSLSASLGDRVTISCRASQDINNYLNWYQQKPDGTVKLLIYYTSRLQSGVPSRFSGSGSGTDYSLTISSLEQDDIATYFCQQGSPLPWTFGGGTKLEIKR : reported IC50 at 40 ng/ml TL1A, I5 reporter cells = ?
### Response 290
